The values you see were collected from the supplement of paper PMC7726561.

// reported thermal melting temperature per item
Biological target: HLA-A*02:01;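 note: lysates heated 10 min at 37–73 °C, complexes pulled down with pan-HLA I antibody, peptide signal by DIA-MS relative to 37 °C, Tm where half the complex is unfolded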
Test: thermal melting temperature (Tm) of peptide-HLA complex; higher = more thermostable pHLA complex
Details: C1R-A*02:01
Over roughly 1,100 sequences, “thermal melting temperature (Tm) of peptide-HLA complex” has its median near 58; the lowest 2% begin near 42. Many of the other results were omitted from the sample, so the lowest values are more common in it than they were.
Number in °C, nothing else.

# macromolecule sequence, unit string, thermal melting temperature
data = [
    ("YLSGIAHFL", "°C", 62),
    ("TLSQAIVKV", "°C", 54.1),
    ("KLYQEVEIASV", "°C", 61),
]

Now look at this one.
Note to self: thermal melting temperature recorded for `NLLEIAPHL` was 52.1
